Hey, just so you know, these numbers are from patent US20230339970A1.

biological target: human recombinant GST cleaved CSNK1D (Homo sapiens, UniProt P48730); construct: GST (cleaved yes); assay: Purified Enzyme Assay (ADP-Glo CSNK1D Kinase Assay); details: 2 nM CSNK1D; peptide substrate 150 μM; ATP 20 μM; 45 minutes at room temperature
Sequence (P48730 whole entry): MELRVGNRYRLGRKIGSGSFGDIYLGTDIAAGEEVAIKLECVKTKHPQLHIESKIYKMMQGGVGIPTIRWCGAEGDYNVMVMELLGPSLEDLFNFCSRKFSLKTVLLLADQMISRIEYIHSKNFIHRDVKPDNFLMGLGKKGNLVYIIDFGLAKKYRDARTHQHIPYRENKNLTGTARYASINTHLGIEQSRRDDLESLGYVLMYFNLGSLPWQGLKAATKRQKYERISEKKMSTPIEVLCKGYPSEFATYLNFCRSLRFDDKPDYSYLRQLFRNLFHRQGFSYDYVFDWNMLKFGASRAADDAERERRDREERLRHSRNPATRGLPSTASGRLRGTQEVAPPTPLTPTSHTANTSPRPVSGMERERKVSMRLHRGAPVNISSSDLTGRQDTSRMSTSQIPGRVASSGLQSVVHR
measure_name: IC50 (nM)

1) Cc1nc2[nH]nc(C)c2c(-c2c(-c3ccc(F)cn3)nn3c2CC2(C3)CC2(F)F)c1F (single isomer, unassigned) [Example 265] : 10
2) Cc1nc2[nH]nc(C)c2c(-c2c(-c3ccc(F)cn3)nn3c2CC[C@H]2[C@@H]3C2(F)F)c1F (single isomer, unassigned) : 7
3) Fc1ccc(-c2nn3c(c2-c2ccnc4[nH]ncc24)CC[C@@H]2C[C@@H]23)cc1 (stereo in doubt) : 5
4) [2H]C([2H])([2H])C1(C([2H])([2H])[2H])Cn2nc(-c3ccc(F)cn3)c(-c3c(F)c(C)nc4[nH]nc(C)c34)c2CO1 : 12
5) CC1(C)Cn2nc(-c3c(F)cncc3F)c(-c3ccnc4[nH]ncc34)c2CO1 : 15
6) CC1(C)Cn2nc(-c3ccc(F)cn3)c(-c3ccnc(NC(=O)C4CC4(F)F)c3)c2CO1 (stereo not shown) : 3
7) Cc1nc(-c2nn3c(c2-c2ccnc4[nH]ncc24)COC(C)(C)C3)ccc1F : 9
